- target: Proto-oncogene tyrosine-protein kinase Src (Homo sapiens, UniProt P12931)
- Sequence (P12931 2-536 limits assumed): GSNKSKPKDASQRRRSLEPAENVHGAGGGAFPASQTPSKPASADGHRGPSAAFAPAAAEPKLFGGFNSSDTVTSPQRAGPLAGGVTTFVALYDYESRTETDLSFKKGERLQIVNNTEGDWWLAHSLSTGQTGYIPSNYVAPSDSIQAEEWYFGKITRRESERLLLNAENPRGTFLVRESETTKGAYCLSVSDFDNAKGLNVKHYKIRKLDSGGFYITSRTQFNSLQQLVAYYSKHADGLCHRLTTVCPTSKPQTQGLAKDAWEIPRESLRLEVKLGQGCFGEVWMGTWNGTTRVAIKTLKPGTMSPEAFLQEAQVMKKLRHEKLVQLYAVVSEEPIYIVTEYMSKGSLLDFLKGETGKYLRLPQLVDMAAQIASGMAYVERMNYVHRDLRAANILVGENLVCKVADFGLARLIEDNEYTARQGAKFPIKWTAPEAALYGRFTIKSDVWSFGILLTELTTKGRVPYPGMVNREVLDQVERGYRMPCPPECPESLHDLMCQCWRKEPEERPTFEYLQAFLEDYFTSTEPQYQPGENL
Square brackets hold non-standard residues; d marks the D form. Peptide text beside a SMILES is read from it. pY = N[C@@H](Cc1ccc(OP(=O)(O)O)cc1)C(=O)O
metricName: pIC50
pIC50 is a log-scale quantity: -log10 of the concentration expressed in molar.

CC(=O)N[C@@H](Cc1ccc(OP(=O)(O)O)cc1)C(=O)N[C@@H](C)c1nc(Cc2ccc3ccccc3c2)no1 :: 4.19
CC(=O)N[C@@H](Cc1ccc(OP(=O)(O)O)cc1)C(=O)NC(C)(C)c1nc(Cc2ccc(C(F)(F)F)cc2)no1 :: 3.31
C[C@H](NC(=O)[C@H](Cc1ccc(OP(=O)(O)O)cc1)NC(=O)Cc1c[nH]c2ccccc12)c1nc(Cc2ccc(C(F)(F)F)cc2)no1 :: 4.21
CC(=O)N[C@@H](Cc1ccc(OP(=O)(O)O)cc1)C(=O)N[C@@H](CCC(N)=O)c1nc(CCc2ccccc2)no1 :: 3.81
CC(=O)N[C@@H](Cc1ccc(OP(=O)(O)O)cc1)C(=O)N[C@@H](CO)c1nc(Cc2ccc(C(F)(F)F)cc2)no1 :: 3.55

Given the entry CC(=O)N[C@@H](Cc1ccc(OP(=O)(O)O)cc1)C(=O)N[C@@H](C)c1nc(Cc2ccc(C)cc2)no1 , what pIC50 was observed with Proto-oncogene tyrosine-protein kinase Src (Homo sapiens, UniProt P12931)?
4.19

Given the entry CC(=O)N[C@@H](Cc1ccc(OP(=O)(O)O)cc1)C(=O)N[C@@H](CCC(N)=O)c1nc(Cc2ccc3ccccc3c2)no1 , what pIC50 was observed with Proto-oncogene tyrosine-protein kinase Src (Homo sapiens, UniProt P12931)?
3.56

Given the entry C[C@H](NC(=O)[C@H](Cc1ccc(OP(=O)(O)O)cc1)NC(=O)Cc1ccc(F)c(F)c1)c1nc(Cc2ccc(C(F)(F)F)cc2)no1 , what pIC50 was observed with Proto-oncogene tyrosine-protein kinase Src (Homo sapiens, UniProt P12931)?
3.89

Given the entry CC(=O)N[C@@H](Cc1ccc(OP(=O)(O)O)cc1)C(=O)N[C@@H](CO)c1nc(Cc2ccc(Cl)cc2)no1 , what pIC50 was observed with Proto-oncogene tyrosine-protein kinase Src (Homo sapiens, UniProt P12931)?
3.83

Given the entry CC(=O)N[C@@H](Cc1ccc(OP(=O)(O)O)cc1)C(=O)N[C@@H](C)c1nc(Cc2ccc(I)c(Cl)c2)no1 , what pIC50 was observed with Proto-oncogene tyrosine-protein kinase Src (Homo sapiens, UniProt P12931)?
4.30

Given the entry CC(=O)N[C@@H](Cc1ccc(OP(=O)(O)O)cc1)C(=O)N[C@@H](CCC(N)=O)c1nc(Cc2cccc(Cl)c2)no1 , what pIC50 was observed with Proto-oncogene tyrosine-protein kinase Src (Homo sapiens, UniProt P12931)?
3.59

Given the entry CC(=O)N[C@@H](Cc1ccc(OP(=O)(O)O)cc1)C(=O)N[C@@H](CC(N)=O)C(=O)N[C@@H](CCC(=O)O)C(=O)N[C@@H](CC(C)C)C(N)=O (Ac-[pY]NEL-NH2) , what pIC50 was observed with Proto-oncogene tyrosine-protein kinase Src (Homo sapiens, UniProt P12931)?
3.63

---

- target: Tyrosine-protein kinase ZAP-70 (Homo sapiens)
- Sequence (P43403 whole entry): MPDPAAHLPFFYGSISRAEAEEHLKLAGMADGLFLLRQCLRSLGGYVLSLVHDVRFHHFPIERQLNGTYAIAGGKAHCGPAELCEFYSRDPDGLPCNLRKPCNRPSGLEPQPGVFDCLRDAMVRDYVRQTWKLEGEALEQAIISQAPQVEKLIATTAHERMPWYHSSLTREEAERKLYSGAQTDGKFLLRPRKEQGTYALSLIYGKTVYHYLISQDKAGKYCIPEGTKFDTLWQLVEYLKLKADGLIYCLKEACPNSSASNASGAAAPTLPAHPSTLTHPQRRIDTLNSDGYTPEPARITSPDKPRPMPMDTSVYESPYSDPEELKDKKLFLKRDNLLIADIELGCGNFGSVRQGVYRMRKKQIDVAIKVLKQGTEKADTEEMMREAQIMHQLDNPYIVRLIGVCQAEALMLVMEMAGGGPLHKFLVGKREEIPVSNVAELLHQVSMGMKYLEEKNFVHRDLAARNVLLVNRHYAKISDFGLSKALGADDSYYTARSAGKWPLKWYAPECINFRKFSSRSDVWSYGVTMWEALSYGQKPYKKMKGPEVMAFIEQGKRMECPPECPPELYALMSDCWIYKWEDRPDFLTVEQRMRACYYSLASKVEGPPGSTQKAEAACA
Square brackets hold non-standard residues; d marks the D form. Peptide text beside a SMILES is read from it. pY = N[C@@H](Cc1ccc(OP(=O)(O)O)cc1)C(=O)O
List of IC50 values.

CC[C@H](C)[C@H](NC(=O)[C@H](CCC(=O)O)NC(=O)[C@H](CCC(=O)O)NC(=O)[C@H](Cc1ccc(OP(=O)(O)O)cc1)NC(C)=O)C(N)=O :: 530 µM

Given the entry CC(=O)N[C@@H](Cc1ccc(OP(=O)(O)O)cc1)C(=O)N[C@@H](CC(N)=O)C(=O)N[C@@H](CCC(=O)O)C(=O)N[C@@H](CC(C)C)C(N)=O (Ac-[pY]NEL-NH2) , what IC50 was observed with Tyrosine-protein kinase ZAP-70 (Homo sapiens)?
422 µM

Given the entry CC(=O)N[C@@H](Cc1ccc(OP(=O)(O)O)cc1)C(=O)N[C@@H](CCC(N)=O)c1nc(Cc2ccc(Cl)cc2Cl)no1 , what IC50 was observed with Tyrosine-protein kinase ZAP-70 (Homo sapiens)?
184 µM

Given the entry CC(=O)N[C@@H](Cc1ccc(OP(=O)(O)O)cc1)C(=O)N[C@@H](CC(=O)O)C(=O)N[C@H](C(=O)N[C@@H](CC(C)C)C(N)=O)C(C)C (Ac-[pY]DVL-NH2) , what IC50 was observed with Tyrosine-protein kinase ZAP-70 (Homo sapiens)?
328 µM

Given the entry CC(=O)N[C@@H](Cc1ccc(OP(=O)(O)O)cc1)C(=O)NC(C)(C)c1nc(Cc2ccc(C(F)(F)F)cc2)no1 , what IC50 was observed with Tyrosine-protein kinase ZAP-70 (Homo sapiens)?
228 µM

Given the entry CC(=O)N[C@@H](Cc1ccc(OP(=O)(O)O)cc1)C(=O)N[C@@H](CCC(N)=O)c1nc(Cc2ccccc2)no1 , what IC50 was observed with Tyrosine-protein kinase ZAP-70 (Homo sapiens)?
> 500 µM

Given the entry CC(=O)N[C@@H](Cc1ccc(OP(=O)(O)O)cc1)C(=O)NCCc1nc(Cc2ccc(C(F)(F)F)cc2)no1 , what IC50 was observed with Tyrosine-protein kinase ZAP-70 (Homo sapiens)?
> 500 µM

---

Here's a batch of molecules along with measured pIC50 for Tyrosine-protein kinase SYK (Homo sapiens).
pIC50: −log10 of the molar value.

CC(=O)N[C@@H](Cc1ccc(OP(=O)(O)O)cc1)C(=O)N[C@@H](CCC(N)=O)c1nc(Cc2ccc(Cl)cc2)no1 :: < 3.30
O=C(Cc1ccccc1)N[C@@H](Cc1ccc(OP(=O)(O)O)cc1)C(=O)N[C@@H](CO)c1nc(Cc2ccc3ccccc3c2)no1 :: < 3.30

Request the reported pIC50 associated with CC(=O)N[C@@H](Cc1ccc(OP(=O)(O)O)cc1)C(=O)N[C@@H](C)c1nc(Cc2ccc(F)cc2)no1
< 3.30

Request the reported pIC50 associated with C[C@H](NC(=O)[C@H](Cc1ccc(OP(=O)(O)O)cc1)NC(=O)Cc1ccc2ccccc2c1)c1nc(Cc2ccc(C(F)(F)F)cc2)no1
3.52

---

- target: Tyrosine-protein kinase SYK (Homo sapiens)
pIC50: −log10 of the molar value. Square brackets hold non-standard residues; d marks the D form. Peptide text beside a SMILES is read from it. pY = N[C@@H](Cc1ccc(OP(=O)(O)O)cc1)C(=O)O
List of pIC50 values.

A selection of reference data follows.
CC(=O)N[C@@H](Cc1ccc(OP(=O)(O)O)cc1)C(=O)N[C@@H](CCC(N)=O)c1nc(Cc2cccc(Cl)c2)no1 :: < 3.30
CC(=O)N[C@@H](Cc1ccc(OP(=O)(O)O)cc1)C(=O)N[C@@H](CCc1ccccc1)c1nc(Cc2ccc(Cl)c(Cl)c2)no1 :: 3.60
CC(=O)N[C@@H](Cc1ccc(OP(=O)(O)O)cc1)C(=O)N[C@@H](Cc1c[nH]c2ccccc12)c1nc(Cc2ccc(C(F)(F)F)cc2)no1 :: < 3.30
CC(=O)N[C@@H](Cc1ccc(OP(=O)(O)O)cc1)C(=O)N[C@@H](CCC(N)=O)c1nc(Cc2cccc3ccccc23)no1 :: < 3.30
CC(=O)N[C@@H](Cc1ccc(OP(=O)(O)O)cc1)C(=O)N[C@@H](C)c1nc(Cc2ccc(Cl)cc2)no1 :: < 3.30

Given the entry CC(=O)N[C@@H](Cc1ccc(OP(=O)(O)O)cc1)C(=O)N[C@@H](CC(N)=O)C(=O)N[C@@H](CCC(=O)O)C(=O)N[C@@H](CC(C)C)C(N)=O (Ac-[pY]NEL-NH2) , what pIC50 was observed with Tyrosine-protein kinase SYK (Homo sapiens)?
3.38

Given the entry CC(=O)N[C@@H](Cc1ccc(OP(=O)(O)O)cc1)C(=O)N[C@@H](CCC(N)=O)c1nc(Cc2ccccc2)no1 , what pIC50 was observed with Tyrosine-protein kinase SYK (Homo sapiens)?
< 3.30

Data provenance is ChEMBL document CHEMBL1132280.
